# target_or_system: Salicyl-AMP ligase / salicyl-S-ArCP synthetase (Mycobacterium tuberculosis, UniProt P71716)
# Sequence (P71716 whole entry): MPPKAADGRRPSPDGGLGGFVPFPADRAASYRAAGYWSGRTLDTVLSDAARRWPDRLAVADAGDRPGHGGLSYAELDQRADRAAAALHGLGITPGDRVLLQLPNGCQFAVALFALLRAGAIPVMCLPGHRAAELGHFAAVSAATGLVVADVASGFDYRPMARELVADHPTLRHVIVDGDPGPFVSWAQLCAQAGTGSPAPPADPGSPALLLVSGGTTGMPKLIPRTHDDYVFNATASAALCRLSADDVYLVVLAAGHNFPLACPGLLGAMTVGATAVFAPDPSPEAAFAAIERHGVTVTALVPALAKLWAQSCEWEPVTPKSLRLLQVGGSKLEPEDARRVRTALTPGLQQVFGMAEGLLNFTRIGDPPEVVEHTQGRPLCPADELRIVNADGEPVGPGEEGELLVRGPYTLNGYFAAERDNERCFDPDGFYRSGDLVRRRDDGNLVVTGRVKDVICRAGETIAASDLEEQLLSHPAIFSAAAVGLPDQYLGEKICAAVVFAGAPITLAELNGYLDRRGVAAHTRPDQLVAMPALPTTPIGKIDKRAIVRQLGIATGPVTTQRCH
Listed next: entries and their corresponding log10 Ki.
reported_endpoint: log10 Ki (log10 of the value in nM)

> print(dat)
                                 smiles.str  reported.endpoint  test.result
1  Nc1ncnc2c1ncn2[C@@H]1O[C@H](COS(=O)(=O)NCc2ccccc2O)[C@@H](O)[C@H]1O           log10 Ki         2.61
2  Nc1ncnc2c1ncn2[C@@H]1C[C@H](COS(=O)(=O)NC(=O)c2ccccc2O)[C@@H](O)[C@H]1O           log10 Ki         0.36
3  Nc1ncnc2c1ncn2[C@@H]1O[C@H](CNS(=O)(=O)/C=C/c2ccccc2O)[C@@H](O)[C@H]1O           log10 Ki         5.16
4  Nc1ncnc2c1ncn2[C@H]1C[C@H](O)[C@@H](COS(=O)(=O)NC(=O)c2ccccc2O)O1           log10 Ki         0.54
5  Nc1ncnc2c1ncn2[C@@H]1O[C@H](CNS(=O)(=O)NC(=O)c2ccccc2O)[C@@H](O)[C@H]1O           log10 Ki         0.58
6  Nc1ncnc2c1ncn2[C@H]1C=C[C@@H](COS(=O)(=O)NC(=O)c2ccccc2O)C1           log10 Ki         2.92
7  Nc1ncnc2c1ncn2[C@@H]1O[C@H](COS(=O)(=O)CC(=O)c2ccccc2O)[C@@H](O)[C@H]1O           log10 Ki         3.52
8  Nc1ncnc2c1ncn2[C@H]1CC[C@@H](COS(=O)(=O)NC(=O)c2ccccc2O)C1           log10 Ki         1.79
9  Nc1ncnc2c1ncn2[C@@H]1O[C@H](COS(=O)(=O)NC(=O)c2ccccc2O)C[C@H]1O           log10 Ki         0.51

Measured values drawn from ChEMBL document CHEMBL1152297 for this set.
